experimental system: T1, GABAAR α2 subunit large cytoplasmic loop (AA 335-419) (UniProt P23576 335-419)
T1 construct: GABAA receptor α2 subunit, large cytoplasmic loop, AA 335-419; also called α2L; GABAAR-α2L
T1 sequence (P23576 335-419): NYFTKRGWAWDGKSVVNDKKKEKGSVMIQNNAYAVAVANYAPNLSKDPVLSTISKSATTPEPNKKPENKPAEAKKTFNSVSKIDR
experiment summary: ITC; CB-SH3 titrated against the receptor loops and truncated constructs
conditions used: both partners purified
property label: Kd
// return the numeric value with its unit appended

In: I am curious: what Kd value has been reported for SH3 domain of collybistin (CB-SH3) (domain or fragment, murine, UniProt Q3UTH8 4-72, looked up, collybistin CB1, murine, residues 4-72, encompassing the complete SH3 domain (residues 8-67); pGEX construct provided by T. Soykan (Brose lab); source: E. coli, purified (GST tag, in-situ thrombin cleavage, Superdex 200 SEC); not shown: GST, N-terminal, cleaved) LITGDSIVSAEAVWDHVTMANRELAFKAGDVIKVLDASNKDWWWGQIDDEEGWFPASFVRLWVNQEDGV ?
Out: 1300 nM
